- system_name: transducin α (Tα*) (Bos taurus, UniProt P04695)
- Sequence (P04695 2-350): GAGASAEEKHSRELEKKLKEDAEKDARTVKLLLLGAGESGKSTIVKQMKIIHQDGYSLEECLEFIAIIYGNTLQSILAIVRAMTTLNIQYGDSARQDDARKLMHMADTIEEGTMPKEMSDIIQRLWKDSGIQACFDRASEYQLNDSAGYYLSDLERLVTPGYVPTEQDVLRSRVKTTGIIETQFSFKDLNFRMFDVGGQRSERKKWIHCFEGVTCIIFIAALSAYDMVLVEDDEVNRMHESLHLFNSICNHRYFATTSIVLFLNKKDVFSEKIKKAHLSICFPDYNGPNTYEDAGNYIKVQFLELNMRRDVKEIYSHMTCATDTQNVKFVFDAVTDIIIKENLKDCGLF
- test: PDE activation assay fit (membranes)
experimental_endpoint: pKd
Numbers only, as −log10 of the molar value.

// recorded pKd for PDEγ (protein, activated Tα, membranes) MNLEPPKAEIRSATRVMGGPVTPRKGPPKFKQRQTRQFKSKPPKKGVQGFGDDIPGMEGLGTDITVICPWEAFNHLELHELAQYGII : 10.25
